# credit: patent US6093836A

Entries annotated with measured IC50 (inhibitory activity against tyrosinase)
target of assay: tyrosinase
assay procedure: Inhibitory activity against tyrosinase (mushroom enzyme, L-tyrosine substrate, absorbance at 475 nm)
Type: biochemical, mushrooms
experimental conditions: pH 6.8, 37° C., 10 minutes
value type: IC50 (inhibitory activity against tyrosinase) (µg/mL)

{"columns": ["compound", "test value"],
 "data": [
  ["Cc1c(C)c(O)c(CCCc2ccc(O)cc2O)c(C)c1O", 1],
  ["COc1c(C)c(C)c(O)c(C(O)CCc2ccc(O)cc2O)c1C (stereo not shown)", 0.1],
  ["Cc1c(C)c2c(c(C(O)CCc3ccc(O)cc3O)c1O)CCC(C)(C)O2 (stereo not shown)", 0.3],
  ["COc1c(C)c(C)c(O)c(CCCc2ccc(O)cc2O)c1C", 0.1],
  ["CCOc1c(C)c(C)c(O)c(C(O)CCc2ccc(O)cc2O)c1C (stereo not shown)", 1.0],
  ["Oc1ccc(O)cc1 [Hydroquinone, reference compound]", 0.5],
  ["COc1c(C)c(C)c(O)c(C)c1C(O)CCc1ccc(O)cc1O (stereo not shown)", 50],
  ["Cc1c(C)c2c(c(CCCc3ccc(O)cc3O)c1O)CCC(C)(C)O2", 0.3],
  ["COc1c(C)c(C)c(O)c(C)c1CCCc1ccc(O)cc1O", 20],
  ["Cc1c(C)c(O)c(C(O)CCc2ccc(O)cc2O)c(C)c1O (stereo not shown)", 0.5]
]}
